Measured values drawn from the METLIN SMRT retention time set (Domingo-Almenara et al. 2019) for this set.

assay-info: gradient 5% acetonitrile 3 min, to 50% in 2 min, to 85% in 15 min, held 3 min, 100 µL/min
test-conditions: column: Zorbax Extend-C18 2.1 x 50 mm; eluents: water / acetonitrile, 0.1% formic acid
// reported RP-LC retention time per item
Give the value in s but do not write s after it.

Entry Cn1cc(CN2CCC(C(=O)NCCC3=CCCCC3)CC2)c2cc(Cl)ccc21 ; RP-LC retention time = 778

Entry Cc1ccc(F)cc1S(=O)(=O)N1CCC(n2c(-c3ccco3)nc3cccnc32)C1 (stereo not drawn) ; RP-LC retention time = 910

Entry COc1ccc(-c2cc(=O)n3c4ccccc4n(CC(=O)Nc4ccc5c(c4)OCO5)c3n2)cc1 ; RP-LC retention time = 720

---

assay-info: gradient 5% acetonitrile 3 min, to 50% in 2 min, to 85% in 15 min, held 3 min, 100 µL/min
test-conditions: column: Zorbax Extend-C18 2.1 x 50 mm; eluents: water / acetonitrile, 0.1% formic acid
// reported RP-LC retention time per item
Give the value in s but do not write s after it.

Below: 10 compounds and their reported RP-LC retention time.
# compound, test-result
records = [
    ("Cc1ccc(Cl)cc1NC(=O)Cn1cnc2c(sc3nc(-c4ccccc4)ccc32)c1=O", 1070),
    ("Cc1ccc(C(=O)N(CCCN)[C@@H](c2nc3cc(Cl)ccc3c(=O)n2Cc2ccccc2)C(C)C)cc1", 990),
    ("CCc1nc(N)n(CC(=O)Nc2cccc(C)c2)c(=O)c1C", 610),
    ("O=C(Nc1cccc(Cl)c1)Nc1cnn(-c2ncncc2N2CCOCC2)c1", 735),
    ("O=C(NCCCN1CCCC1)c1ccc2c(c1)NC(=O)C1CCCCN21 (stereo unspecified)", 588),
    ("CCN(C(=O)C1CCN(C(=O)c2cccc(F)c2)CC1)C1CCCCC1", 855),
    ("COc1cccc(-c2nc3cnccn3c2NCCC(=O)NC2CCCC2)c1", 675),
    ("COc1ccccc1-c1nnc(-c2cc(S(=O)(=O)N3CCCC3)ccc2Cl)o1", 951),
    ("Cc1ccc(CN2CCN(CC(=O)Nc3ccc(C)cc3)C(=O)C2=O)cc1", 786),
    ("CCCNC(=O)c1cc(C)nc2ccc(Cl)cc12", 719),
]

Now let's try a different one.
Entry COCCCNC(=O)C1c2ccccc2C(=O)N(C2CCCCC2)C12CCCCC2 (stereo unspecified) ; RP-LC retention time = 946

---

assay-info: gradient 5% acetonitrile 3 min, to 50% in 2 min, to 85% in 15 min, held 3 min, 100 µL/min
test-conditions: column: Zorbax Extend-C18 2.1 x 50 mm; eluents: water / acetonitrile, 0.1% formic acid
// reported RP-LC retention time per item
Give the value in s but do not write s after it.

Below: 4 compounds and their reported RP-LC retention time.
# compound, unit-symbol, RP-LC retention time
data = [
    ("Cc1nnc(N2CCCC(C(=O)NCc3ccccn3)C2)c2nn(-c3ccccc3)c(C)c12 (stereo not given)", "s", 566),
    ("O=C(NCc1ccccc1Cl)C1c2ccccc2CCN1C(=O)C1CC1 (stereo not given)", "s", 881),
    ("CC(C)c1nnc(-c2coc(S(=O)(=O)N3CCC(N4CCCCC4)CC3)c2)o1", "s", 625),
    ("Oc1c(CN2CCN(c3ccccc3)CC2)cc(Br)c2cccnc12", "s", 830),
]

Now let's try a different one.
Entry Cc1ccc(CNC(=O)Cc2c(C(=O)O)c(C)cn2C)o1 ; RP-LC retention time = 695
